# TESTED SYSTEM: T1, huNectin4-His (human, UniProt Q96NY8 32-349)
# T1 construct: Immobilized on the SPR chip; also called humanNectin4; human Nectin4; not shown: His tag
# T1 sequence (looked up): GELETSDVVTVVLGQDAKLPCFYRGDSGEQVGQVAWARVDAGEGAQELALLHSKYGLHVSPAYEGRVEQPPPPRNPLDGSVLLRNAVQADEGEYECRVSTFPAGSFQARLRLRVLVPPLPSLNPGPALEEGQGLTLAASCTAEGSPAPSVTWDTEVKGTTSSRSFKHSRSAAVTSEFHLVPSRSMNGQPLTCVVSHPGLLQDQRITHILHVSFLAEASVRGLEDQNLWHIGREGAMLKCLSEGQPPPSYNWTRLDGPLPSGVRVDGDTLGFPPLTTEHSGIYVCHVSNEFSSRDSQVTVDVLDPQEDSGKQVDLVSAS
# EXPERIMENT SUMMARY: SPR, huNectin4-His immobilized, pH 7.4
kon: recorded values
Form entry: value (M⁻¹ s⁻¹) — number only.

BAP-143-00-01 (antibody, V domains shown, Used as a conjugate with a linker payload (CAB ADC)) VH: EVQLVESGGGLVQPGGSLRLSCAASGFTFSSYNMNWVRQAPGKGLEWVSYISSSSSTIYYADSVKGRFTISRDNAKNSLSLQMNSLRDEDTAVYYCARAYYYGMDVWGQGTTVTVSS VL: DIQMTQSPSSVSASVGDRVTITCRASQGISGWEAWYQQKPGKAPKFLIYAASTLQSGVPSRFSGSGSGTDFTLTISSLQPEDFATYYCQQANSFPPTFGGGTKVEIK | 285000
BAP-143-06-33-16 (antibody, V domains shown, Used as a conjugate with a linker payload (CAB ADC)) VH: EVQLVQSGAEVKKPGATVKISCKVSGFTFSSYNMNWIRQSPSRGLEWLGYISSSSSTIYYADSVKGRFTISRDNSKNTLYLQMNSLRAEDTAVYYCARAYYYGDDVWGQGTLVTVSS VL: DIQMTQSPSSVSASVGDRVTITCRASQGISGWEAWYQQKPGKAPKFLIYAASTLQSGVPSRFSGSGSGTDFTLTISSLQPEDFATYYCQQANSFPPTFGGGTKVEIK | 119000
BAP-143-06-24-16 (antibody, V domains shown, Used as a conjugate with a linker payload (CAB ADC)) VH: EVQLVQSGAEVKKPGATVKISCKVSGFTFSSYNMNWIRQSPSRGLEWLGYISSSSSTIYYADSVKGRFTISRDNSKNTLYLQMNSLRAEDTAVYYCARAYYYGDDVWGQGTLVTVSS VL: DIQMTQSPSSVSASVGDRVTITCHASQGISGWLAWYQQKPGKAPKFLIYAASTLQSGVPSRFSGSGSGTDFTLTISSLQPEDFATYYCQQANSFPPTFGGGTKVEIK | 778000

**Q:** Item BAP-143-07-03-12 (antibody, V domains shown, Used as a conjugate with a linker payload (CAB ADC)) VH: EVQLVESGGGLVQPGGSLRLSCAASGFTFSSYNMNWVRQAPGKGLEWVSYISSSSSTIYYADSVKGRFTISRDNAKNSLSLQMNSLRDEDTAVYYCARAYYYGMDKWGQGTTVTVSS VL: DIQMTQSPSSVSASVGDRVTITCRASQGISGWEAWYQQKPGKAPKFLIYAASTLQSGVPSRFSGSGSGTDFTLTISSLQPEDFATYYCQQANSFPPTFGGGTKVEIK has what recorded kon?
**A:** 434000
